# target.or.test.system: T1, melanocortin-1 receptor (MC1-R) of B-16 mouse melanoma cells (mouse, UniProt Q01727 1-315)
# T1 construct: whole, on cells; membranes prepared from the cells were used; also called Melanocortin Receptor 1
# T1 sequence (Q01727 whole entry): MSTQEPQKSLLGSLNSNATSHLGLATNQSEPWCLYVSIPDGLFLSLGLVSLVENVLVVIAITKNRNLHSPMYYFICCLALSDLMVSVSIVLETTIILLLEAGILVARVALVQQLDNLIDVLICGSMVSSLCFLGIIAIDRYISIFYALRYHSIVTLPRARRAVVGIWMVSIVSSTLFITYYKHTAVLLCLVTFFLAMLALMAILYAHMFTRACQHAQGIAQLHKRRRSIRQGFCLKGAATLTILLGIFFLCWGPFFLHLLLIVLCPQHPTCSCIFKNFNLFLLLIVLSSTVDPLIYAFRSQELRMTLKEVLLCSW
# test: 125I-NDP-α-MSH competition, B-16 membranes
Square brackets hold non-standard residues; d marks the D form. Nle = CCCC[C@H](N)C(=O)O
reported.metric: % Inhibition at 1 µM (%)
Give bare numbers, in %.

Reference set (4 entries):
>>> value_observed("Ac-SYS[Nle]CEHFRWGKPV-NH2 (also: oxorhenium(V) N3S1 chelate at Cys5) [metallopeptide 1-10]")
72
>>> value_observed("Ac-SYS[Nle]EHFRWGKCPV-NH2 (also: oxorhenium(V) N3S1 chelate at Cys12) [metallopeptide 1-3]")
87
>>> value_observed("Ac-SYS[Nle]EHFRWCGKPV-NH2 (also: oxorhenium(V) N3S1 chelate at Cys10) [metallopeptide 1-5]")
57
>>> value_observed("Ac-SYS[Nle]EHFRWGKGCV-NH2 (also: oxorhenium(V) N3S1 chelate at Cys13) [metallopeptide 1-2]")
87

Field: next binder
Qu. Look at this binder and give its reported % Inhibition at 1 µM. Ac-SYS[Nle]EHFRWGCKPV-NH2 (also: oxorhenium(V) N3S1 chelate at Cys11) [metallopeptide 1-4]
Ans. 72

Entry source: patent US20050282739A1
